Hello, the source for this data is ChEMBL document CHEMBL1201862, in case you need it.

test system: DMS-114; assay: NCI tumour cell line growth inhibition, 48 h
The source made the active and inactive calls. Cut-off read from the data, not from the text of the source: active = GI50 up to about 1.1 µM and inactive = higher.
Consider the following compounds and their measured GI50 readings.

> print(dat)
                                   compound               result
1  CC1CN1c1c(C(=O)/C=C/c2ccc(F)cc2)c(-c2ccccc2)nn(C)c1=O (stereo unspecified)   15.7 µM (inactive)
2  CC1=NN(C(=O)CC(=O)Nc2cccc(Cl)c2)C(=O)C1/N=N/c1ccc(S(N)(=O)=O)cc1 (stereo unspecified)  > 100 µM (inactive)
3                             Oc1cc(Cl)ncn1  > 100 µM (inactive)
4      c1ccc(OCc2nnc3n2N=C(c2ccccc2)CS3)cc1  > 100 µM (inactive)
5                CCN(CC)CCCn1cnc2ncccc2c1=O  > 100 µM (inactive)
6  CCC(=O)OC[n+]1ccc2c(C)c3[nH]c4ccccc4c3c(C)c2c1    0.608 µM (active)

Req: // query GI50 value for entry COC(=O)C1Cc2c([nH]c3ccccc23)C(c2ccccc2O)N1 (stereo unspecified)
Resp: 58.1 µM (inactive)

Req: Then this compound: CCN/C(=N\Nc1ccc([N+](=O)[O-])cc1)P(=O)(OC(C)C)OC(C)C
Resp: > 100 µM (inactive)

Req: Then this compound: CC(C)(C)OC(=O)N1N=NC2C3OC(CC3=O)C21 (stereo unspecified)
Resp: > 100 µM (inactive)

Req: Then this compound: CN(C)CCOc1cccc2c1C(=O)c1ccccc1C2=O
Resp: 10.4 µM (inactive)

Req: Then this compound: Cc1ccccc1-c1c(N)nc(N)nc1C(=O)Nc1nccs1
Resp: > 100 µM (inactive)

Req: Then this compound: O=[N+]([O-])c1cccc(C2N3CCCCC3[C@@H]3c4[nH]c5ccccc5c4CCN23)c1 (stereo partly specified)
Resp: 6.9 µM (inactive)

Req: Then this compound: CN(C)/C(=N/C(=S)Nc1ccccc1)SCc1ccccc1
Resp: 9.93 µM (inactive)

Req: Then this compound: O=C1OC(c2ccccc2)=N/C1=C\c1c(O)cc(O)cc1O
Resp: > 100 µM (inactive)

---

tested on: SNB-78; assay: NCI tumour cell line growth inhibition, 48 h
Calls of active or inactive are those of the source. Rule as the data show it: active = GI50 up to about 1.1 µM and inactive = higher.
Consider the following molecules and their measured GI50 readings.

In the examples that follow, each entry is paired with its recorded GI50.
> print(dat)
                                   molecule               result
1  O=C1C2C=CC(C2)C(c2ccc(O)cc2)N1O (stereo unspecified)  > 100 µM (inactive)
2  Clc1ccc(-c2c(C3=NCCCN3)nnn2-c2ccc(Cl)cc2)cc1   43.6 µM (inactive)
3  C=CC1(C)CC(=O)C2(O)C(C)(O1)C(OC(C)=O)C(O)C1C(C)(C)CCC(O)C12C (stereo unspecified)    5.4 µM (inactive)
4  COc1ccc(OC(C)C(=O)O)c2c1CCCC2=O (stereo unspecified)  > 100 µM (inactive)
5  O/N=C1/C(=C/c2ccc(Cl)cc2)CCCC1C(NO)c1ccc(Cl)cc1 (stereo unspecified)   21.9 µM (inactive)

Next up:
Req: // query GI50 value for entry Cc1ccc(OC(=O)N2C/C(=C\c3ccccc3)C(=O)/C(=C/c3ccccc3)C2)cc1
Resp: 28.4 µM (inactive)
